I'd be grateful if you could share measured maximal growth inhibition for these entries.
# Tested on: SUDIPGXIII (diffuse intrinsic pontine glioma line)
# protocol-description: maximal growth inhibition (yFin) relative to DMSO / staurosporine; higher = more efficacious
A complete answer gives the number followed by the unit.

Hi! Can you tell me maximal growth inhibition for each of these compounds?
1. O=C(Nc1ccccc1-c1cn2c(CN3CCNCC3)csc2n1)c1cnc2ccccc2n1
2. OC1(c2ccc(Cl)c(C(F)(F)F)c2)CCN(CCCC(c2ccc(F)cc2)c2ccc(F)cc2)CC1
3. COC(=O)[C@]12CCC(C)(C)C[C@H]1[C@H]1C(=O)C=C3[C@@]4(C)C=C(C#N)C(=O)C(C)(C)[C@@H]4CC[C@@]3(C)[C@]1(C)CC2
4. CN(C)C/C=C/C(=O)Nc1ccc(C(=O)Nc2cccc(Nc3ncc(Cl)c(-c4c[nH]c5ccccc45)n3)c2)cc1
5. CC(C)c1cc(-c2n[nH]c(=O)n2-c2ccc3c(ccn3C)c2)c(O)cc1O

Result:
94.6%
92.8%
97%
85%
56%

Hi! Can you tell me maximal growth inhibition for each of these compounds?
1. CC(C)C[C@H](NC(=O)[C@H](CCc1ccccc1)NC(=O)CN1CCOCC1)C(=O)N[C@@H](Cc1ccccc1)C(=O)N[C@@H](CC(C)C)C(=O)[C@@]1(C)CO1
2. CC(C)c1c2cc(-c3ccnc(NC4CCC(NC5CCOCC5)CC4)n3)ccc2nn1C (configuration not stated)

Result:
1: 105%; 2: 89.3%

====

# System: DIPGX29 (H3.3 K27M diffuse intrinsic pontine glioma line)
# protocol-description: maximal growth inhibition (yFin) relative to DMSO / staurosporine; higher = more efficacious
I'd be grateful if you could share measured maximal growth inhibition for these entries.
Give bare numbers, in %.

Lookup result for C=CC(=O)N1CCC[C@@H](n2nc(-c3ccc(Oc4ccccc4)cc3)c3c(N)ncnc32)C1 ; measured maximal growth inhibition: 29.8

Lookup result for O=C(CCCCCCC(=O)Nc1ccccc1)NO ; measured maximal growth inhibition: 74.2

Lookup result for CC(C)C[C@H](NC(=O)[C@H](CCc1ccccc1)NC(=O)CN1CCOCC1)C(=O)N[C@@H](Cc1ccccc1)C(=O)N[C@@H](CC(C)C)C(=O)[C@@]1(C)CO1 ; measured maximal growth inhibition: 96.2

Hi! Can you tell me maximal growth inhibition for each of these compounds?
1. C[C@@H](O[C@H]1OCCN(Cc2n[nH]c(=O)[nH]2)[C@H]1c1ccc(F)cc1)c1cc(C(F)(F)F)cc(C(F)(F)F)c1 [APREPITANT]
2. O=C(Nc1c[nH]nc1-c1nc2ccc(CN3CCOCC3)cc2[nH]1)NC1CC1
3. CCOC(=O)Nc1cc(-c2ccc(C)c(NS(C)(=O)=O)c2)nn2c(C)nnc12
4. CC(C)(C)OC(=O)Nc1ccc(-c2cc(C(=O)NCCCCCCC(=O)NO)no2)cc1
5. OCCN1CCN(CCCN2c3ccccc3Sc3ccc(C(F)(F)F)cc32)CC1
6. C[C@@H](Oc1cc(-c2cnn(C3CCNCC3)c2)cnc1N)c1c(Cl)ccc(F)c1Cl

Result:
[85.5, 108, 25.2, 55.1, 61.6, 104]

====

# System: DIPGX9 (diffuse intrinsic pontine glioma line)
# protocol-description: EC50 (inflection of fitted growth-inhibition curve) (log10 M)
I'd be grateful if you could share measured EC50 (log10 M) for these entries.
Give bare numbers.

Example results:
Lookup result for CCOc1cc(C(C)(C)C)ccc1C1=N[C@@](C)(c2ccc(Cl)cc2)[C@@](C)(c2ccc(Cl)cc2)N1C(=O)N1CCN(CCCS(C)(=O)=O)CC1 ; measured EC50 (log10 M): -5.7

Lookup result for CC(=O)OC[C@H]1O[C@@H]([S-])[C@H](OC(C)=O)[C@@H](OC(C)=O)[C@@H]1OC(C)=O.CCP(CC)CC.[Au+] ; measured EC50 (log10 M): -5.78

Lookup result for CCNC(=O)c1noc(-c2cc(C(C)C)c(O)cc2O)c1-c1ccc(CN2CCOCC2)cc1 ; measured EC50 (log10 M): -7.48

Lookup result for Nc1ccc2ncnc(NCCc3ccc(Oc4ccccc4)cc3)c2c1 ; measured EC50 (log10 M): -7.97

Lookup result for O=C(Nc1ccc([N+](=O)[O-])cc1Cl)c1cc(Cl)ccc1O [NICOLSAMIDE] ; measured EC50 (log10 M): -5.44

Hi! Can you tell me EC50 (log10 M) for each of these molecules?
1. OC1(c2ccc(Cl)c(C(F)(F)F)c2)CCN(CCCC(c2ccc(F)cc2)c2ccc(F)cc2)CC1
2. CC(C)(C)c1cnc(CSc2cnc(NC(=O)C3CCNCC3)s2)o1
3. COc1ccc(-c2nc(N3CCOCC3)c3sc(CN(C)c4ncc(C(=O)NO)cn4)cc3n2)cn1

Result:
1: -5.4; 2: -6.71; 3: -7.42
